- Measurement Target: T1, full-length beta-Catenin (Uniprot ID P35222) (Homo sapiens (Human), UniProt P35222 2-781)
- T1 construct: Used full-length in both the FP and the AlphaScreen assay; also called B-Catenin; bCat
- T1 sequence: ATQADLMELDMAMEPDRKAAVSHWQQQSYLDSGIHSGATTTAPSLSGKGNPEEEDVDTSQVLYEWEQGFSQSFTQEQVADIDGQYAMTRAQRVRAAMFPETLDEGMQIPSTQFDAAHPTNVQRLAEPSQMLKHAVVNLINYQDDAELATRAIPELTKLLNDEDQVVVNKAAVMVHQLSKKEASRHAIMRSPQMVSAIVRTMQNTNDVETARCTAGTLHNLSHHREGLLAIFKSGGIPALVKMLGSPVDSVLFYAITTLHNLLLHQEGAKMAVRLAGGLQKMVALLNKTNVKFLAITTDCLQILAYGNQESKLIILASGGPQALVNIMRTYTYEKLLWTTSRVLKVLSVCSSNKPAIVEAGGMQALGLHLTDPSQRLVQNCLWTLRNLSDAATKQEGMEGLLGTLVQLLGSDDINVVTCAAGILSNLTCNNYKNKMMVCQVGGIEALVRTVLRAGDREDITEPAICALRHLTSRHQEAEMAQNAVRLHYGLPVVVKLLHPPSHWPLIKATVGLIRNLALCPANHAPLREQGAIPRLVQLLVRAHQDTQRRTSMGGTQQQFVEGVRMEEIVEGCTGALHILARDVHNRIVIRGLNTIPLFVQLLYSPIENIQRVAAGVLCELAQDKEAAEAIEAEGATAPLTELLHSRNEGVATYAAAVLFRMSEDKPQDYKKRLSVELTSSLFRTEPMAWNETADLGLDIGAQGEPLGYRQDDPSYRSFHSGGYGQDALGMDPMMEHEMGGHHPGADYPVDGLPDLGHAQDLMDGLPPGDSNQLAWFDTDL
- Assay Remarks: AlphaScreen competition; full-length beta-catenin, biotin-TCF4(10-53) probe
Starred links: 1 amine or outer side, 2 acyl side, 3 side chain; linkers in the order of their positions; H or OH if unused. Positions of bridges follow the written chain, without caps; N, C: chain ends. Non-standard residues stand in square brackets, D forms with d. Primed or numbered codes have the meaning given here. RdN″ = (R)-4-(((allyloxy)carbonyl)(methyl)amino)-2-amino-2-methylbutanoic acid (stapling residue), C=CCOC(=O)N(C)CC[C@@](C)(N[*:1])C(=O)[*:2]; PyrS″ = (S)-1-((allyloxy)carbonyl)-3-aminopyrrolidine-3-carboxylic acid (stapling residue), C=CCOC(=O)N1CC[C@@](N[*:1])(C(=O)[*:2])C1; RdN = (R)-4-(((allyloxy)carbonyl)(methyl)amino)-2-amino-2-methylbutanoic acid, C=CCOC(=O)N(C)CC[C@@](C)(N[*:1])C(=O)[*:2]; PyrS = (S)-1-((allyloxy)carbonyl)-3-aminopyrrolidine-3-carboxylic acid, C=CCOC(=O)N1CC[C@@](N[*:1])(C(=O)[*:2])C1; Phe(4-CONH2) = NC(=O)c1ccc(C[C@H](N)C(=O)O)cc1; S7 = C[C@@](CCCCCC=[*:3])(N[*:1])C(=O)[*:2]; d(αMeF) = C[C@@](N)(Cc1ccccc1)C(=O)O; 2Pal = N[C@@H](Cc1ccccn1)C(=O)O; 3Pal = N[C@@H](Cc1cccnc1)C(=O)O; R8 = C=CCCCCCC[C@@](C)(N)C(=O)O; hLeu = CC(C)CC[C@H](N)C(=O)O; Nle = CCCC[C@H](N)C(=O)O
Property Label: EC50

Example results:
{"Binder": "Ac-FDA[R8]DDAAFV[PyrS″][Phe(4-CONH2)]WQ-NH2 (staple 4-11; not fully specified; printed as Ac-Phe-Asp-Ala-R8-Asp-Asp-Ala-Ala-Phe-Val-PyrS-4CBMF-Trp-Gln-NH2, Stapled peptide; also called Ac-Phe-Asp-Ala-R8-Asp-Asp-Ala-Ala-Phe-Val-PyrS-4CBMF-Trp-Gln-NH2) [I-89]", "Value Observed": "5.64 µM"}
{"Binder": "Ac-FDA[R8]DDAA[2Pal]V[PyrS]FWQ-NH2 (staple 4-11, Stapled peptide; also called Ac-Phe-Asp-Ala-R8-Asp-Asp-Ala-Ala-2PyrA-Val-PyrS-Phe-Trp-Gln-NH2) [I-86]", "Value Observed": "≥ 10 µM"}
{"Binder": "Ac-ADI[RdN]DEAAFQ[S7]FWH-NH2 (staple 4-11; not fully specified, Stapled peptide; also called Ac-Ala-Asp-Ile-RdN-Asp-Glu-Ala-Ala-Phe-Gln-S7-Phe-Trp-His-NH2) [I-66]", "Value Observed": "0.175 µM"}
{"Binder": "Ac-ADI[RdN″]D[hLeu]AAFQ[S7]FWH-NH2 (staple 4-11, Stapled peptide; also called Ac-Ala-Asp-Ile-RdN-Asp-hLeu-Ala-Ala-Phe-Gln-S7-Phe-Trp-His-NH2) [I-70]", "Value Observed": "≥ 10 µM"}

Please supply the value of reported EC50 for the item Ac-FDA[R8]DDAA[3Pal]V[PyrS″]FWQ-NH2 (staple 4-11; not fully specified; printed as Ac-Phe-Asp-Ala-R8-Asp-Asp-Ala-Ala-3PyrA-Val-PyrS-Phe-Trp-Gln-NH2, Stapled peptide; also called Ac-Phe-Asp-Ala-R8-Asp-Asp-Ala-Ala-3PyrA-Val-PyrS-Phe-Trp-Gln-NH2) [I-87]
≥ 10 µM

Identify the reported EC50 for the following entry. Ac-FDA[R8]DDAAFV[PyrS″][Phe(4-CONH2)]WQ-NH2 (staple 4-11, Stapled peptide; also called Ac-Phe-Asp-Ala-R8-Asp-Asp-Ala-Ala-Phe-Val-PyrS-4CBMF-Trp-Gln-NH2) [I-90]
≥ 10 µM

Give the value of EC50 reported for the following: Ac-FDA[R8]D[d(αMeF)]AAFV[PyrS″]FWQ-NH2 (staple 4-11; not fully specified, Stapled peptide; also called Ac-Phe-Asp-Ala-R8-Asp-aMeDF-Ala-Ala-Phe-Val-PyrS-Phe-Trp-Gln-NH2) [I-57]
≥ 10 µM

Answer with the recorded EC50 of Ac-FDA[R8]DDAA[3Pal]V[PyrS″]FWQ-NH2 (staple 4-11; not fully specified; printed as Ac-Phe-Asp-Ala-R8-Asp-Asp-Ala-Ala-3PyrA-Val-PyrS-Phe-Trp-Gln-NH2, Stapled peptide; also called Ac-Phe-Asp-Ala-R8-Asp-Asp-Ala-Ala-3PyrA-Val-PyrS-Phe-Trp-Gln-NH2) [I-88] only.
≥ 10 µM

Give EC50 for the following binder: Ac-ADI[RdN″]D[Nle]AAFQ[S7]FWH-NH2 (staple 4-11, Stapled peptide; also called Ac-Ala-Asp-Ile-RdN-Asp-nLeu-Ala-Ala-Phe-Gln-S7-Phe-Trp-His-NH2) [I-68]
8.12 µM

Where do the numbers come from? From patent US20240116985A1.
